Please respond with reported mass density for every item in the list.
Condition: 328.15 K; 101.33 kPa; Liquid; Vibrating tube method
Numbers only, in kg/m3.

Example entries begin here.
CCCCn1cc[n+](C)c1.O=S(=O)([N-]S(=O)(=O)C(F)(F)C(F)(F)C(F)(F)C(F)(F)F)C(F)(F)C(F)(F)C(F)(F)C(F)(F)F | 1575.8
CCOS(=O)(=O)[O-].CCn1cc[n+](C)c1 [1-ethyl-3-methylimidazolium ethyl sulfate] | 1217.6
CCn1cc[n+](C)c1.N#CN=C=[N-] [1-ethyl-3-methylimidazolium dicyanamide] | 1081.5
CCC[N+]1(C)CCCC1.O=S(=O)([N-]S(=O)(=O)C(F)(F)F)C(F)(F)F | 1400.4
CCn1cc[n+](C)c1.O=S(=O)([O-])O [1-ethyl-3-methylimidazolium hydrogen sulfate] | 1348.5
CCn1cc[n+](C)c1.CS(=O)(=O)[O-] [1-ethyl-3-methylimidazolium methanesulfonate] | 1221.5

# per-item lookup of mass density; items listed below
1. CCn1cc[n+](C)c1.O=S(=O)([N-]S(=O)(=O)C(F)(F)F)C(F)(F)F
2. CCn1cc[n+](C)c1.N#C[B-](C#N)(C#N)C#N [1-ethyl-3-methylimidazolium tetracyanoborate]
3. CCn1cc[n+](C)c1.F[B-](F)(F)F [1-ethyl-3-methylimidazolium tetrafluoroborate]
4. CCn1cc[n+](C)c1.N#C[S-] [1-ethyl-3-methylimidazolium thiocyanate]

Result:
[1488.4, 1005.2, 1257.8, 1097.3]
